biological target: Sphingosine 1-phosphate receptor 4 (Homo sapiens); assay: S1P4 receptor agonist potency, late-stage follow-up, cell-based, fluorescence, dose response, synthesized compounds set 2 (AID 504877); details: S1P4 cell-based agonist assay, fluorescence read-out; run 1
Active and inactive are the calls of the source. No rule for the calls is given here.
Outcome codes: active, inactive

Compound: CCN=C1S/C(=C/c2ccn(-c3ccc(F)cc3F)c2)C(=O)N1CC
Assigned category: inactive
--
Compound: CCN=C1S/C(=C/c2cc(C)n(-c3ccc(F)cc3F)c2C)C(=O)N1CC
Assigned category: active
--
Compound: CCN=C1S/C(=C/c2cc(C)n(Cc3ccccc3)c2C)C(=O)N1CC
Assigned category: active
--
Compound: CN=C1NC(=O)/C(=C\c2cc(C)n(-c3cccc(F)c3)c2C)S1
Assigned category: inactive
--
Compound: CN=C1S/C(=C/c2cc(C)n(-c3cc(C)ccc3OC)c2C)C(=O)N1C
Assigned category: inactive
--
Compound: CN=C1S/C(=C/c2cc(C)n(-c3ccccc3C)c2C)C(=O)N1C
Assigned category: inactive
--
Compound: CN=C1S/C(=C/c2cc(C)n(Cc3ccccc3)c2C)C(=O)N1C
Assigned category: active
--
Compound: CN=C1S/C(=C/c2cc(C)n(-c3ccc(F)cc3F)c2C)C(=O)N1C
Assigned category: active
--
Compound: CN=C1NC(=O)/C(=C\c2cc(C)n(-c3ccccc3F)c2C)S1
Assigned category: active
--
Compound: CCN=C1S/C(=C/c2cc(C)n(-c3ccccn3)c2C)C(=O)N1CC
Assigned category: active
--
Compound: CCN=C1S/C(=C\c2cc(C)n(-c3ccccc3F)c2C)C(=O)N1CC
Assigned category: active
--
Compound: Cc1cc(/C=C2\SC(=O)N(C)C2=O)c(C)n1-c1ccccc1F
Assigned category: inactive
--
Compound: CCN=C1S/C(=C/c2cc(C)n(C(C)c3ccccc3)c2C)C(=O)N1CC (centres undefined)
Assigned category: inactive
--
Compound: CN=C1S/C(=C\c2cc(C)n(-c3ccc(F)cc3F)c2C)C(=O)N1CCOC
Assigned category: active
--
Compound: Cc1cc(/C=C2\SC(=NC(C)C)N(C(C)C)C2=O)c(C)n1-c1ccccc1F
Assigned category: inactive
--
Compound: CCN=C1S/C(=C\c2ccn(-c3ccccc3F)c2)C(=O)N1CC
Assigned category: inactive
--
Compound: CN=C1S/C(=C\c2ccn(Cc3ccccc3)c2)C(=O)N1C
Assigned category: inactive
--
Compound: Cc1cc(/C=C2\SC(=Nc3ccccc3)NC2=O)c(C)n1-c1ccccc1F
Assigned category: inactive
--
Compound: CCN=C1S/C(=C\c2cc(C)n(Cc3ccccc3F)c2C)C(=O)N1CC
Assigned category: inactive
--
Compound: CN=C1S/C(=C\c2ccn(-c3ccccc3F)c2)C(=O)N1C
Assigned category: inactive
--
Compound: COCCN=C1S/C(=C\c2cc(C)n(Cc3ccccc3)c2C)C(=O)N1CCOC
Assigned category: inactive
--
Compound: CN=C1S/C(=C/c2cc(C)n(-c3ccc(Cl)cc3F)c2C)C(=O)N1C
Assigned category: active
--
Compound: CN=C1S/C(=C\c2cc(C)n(-c3ccccc3Br)c2C)C(=O)N1C
Assigned category: inactive
--
Compound: CCN=C1S/C(=C/c2cc(C)n(-c3ncccc3F)c2C)C(=O)N1CC
Assigned category: active

* * *

molecular target: UniProtKB O95977; experiment: S1P4 receptor agonist potency, late-stage follow-up, cell-based, fluorescence, dose response, synthesized compounds set 2 (AID 504877); conditions: S1P4 cell-based agonist assay, fluorescence read-out; run 2
Calls of active or inactive are those of the source. No rule for the calls is given here.
Labels: active, inactive

Compound structure string: Cc1cc(/C=C2\SC(=Nc3ccccc3)NC2=O)c(C)n1-c1ccccc1F
Assigned category: inactive
//
Compound structure string: CN=C1NC(=O)/C(=C\c2cc(C)n(-c3cccc(F)c3)c2C)S1
Assigned category: inactive
//
Compound structure string: CN=C1S/C(=C\c2cc(C)n(-c3ccc(F)cc3F)c2C)C(=O)N1CCOC
Assigned category: active

* * *

target: Sphingosine 1-phosphate receptor 4 (Homo sapiens) (UniProt O95977); experiment: S1P4 receptor agonist potency, late-stage follow-up, cell-based, fluorescence, dose response, synthesized compounds set 2 (AID 504877); conditions: S1P4 cell-based agonist assay, fluorescence read-out; run 3
The source made the active and inactive calls. No rule for the calls is given here.
Classes used: active, inactive

Compound structure string: CCN=C1S/C(=C/c2cc(C)n(Cc3ccccc3)c2C)C(=O)N1CC
Assigned category: active
//
Compound structure string: Cc1cc(/C=C2\SC(=Nc3ccccc3)NC2=O)c(C)n1-c1ccccc1F
Assigned category: inactive
//
Compound structure string: CCN=C1S/C(=C/c2cc(C)n(-c3ccc(F)cc3F)c2C)C(=O)N1CC
Assigned category: active
//
Compound structure string: CC/N=C1/SC(=Cc2cc(C)n(Cc3ccccc3OC)c2C)C(=O)N1CC
Assigned category: active
//
Compound structure string: CCN=C1S/C(=C\c2cc(C)n(-c3ccccc3)c2C)C(=O)N1CC
Assigned category: active

* * *

target: Sphingosine 1-phosphate receptor 4 (Homo sapiens); test: S1P4 receptor agonist potency, late-stage follow-up, cell-based, fluorescence, dose response, synthesized compounds set 2 (AID 504877); details: S1P4 cell-based agonist assay, fluorescence read-out; run 2
Active and inactive are the calls of the source. How the calls were made is not given here.
Possible outcomes: T (active), F (inactive)

Compound structure string: CCN=C1S/C(=C/c2cc(C)n(-c3ccccn3)c2C)C(=O)N1CC
Assigned category: T

Compound structure string: CCN=C1S/C(=C/c2cc(C)n(-c3ccc(F)cc3F)c2C)C(=O)N1CC
Assigned category: T

Compound structure string: CCN=C1S/C(=C/c2ccn(-c3ccc(F)cc3F)c2)C(=O)N1CC
Assigned category: F

Compound structure string: C/N=C1/SC(=Cc2cc(C)n(Cc3ccc(F)cc3F)c2C)C(=O)N1C
Assigned category: T

Compound structure string: CN=C1S/C(=C/c2cc(C)n(-c3ccc(F)cc3F)c2C)C(=O)N1C
Assigned category: T

* * *

biological target: Sphingosine 1-phosphate receptor 4 (Homo sapiens) (UniProt O95977); assay: S1P4 receptor agonist potency, late-stage follow-up, cell-based, fluorescence, dose response, synthesized compounds set 2 (AID 504877); conditions: S1P4 cell-based agonist assay, fluorescence read-out; run 3
Activity calls are given as the source filed them. The rule behind the calls is not given here.
Outcome codes: true (1) for active, false (0) for inactive

Compound: CCN=C1S/C(=C/c2cc(C)n(-c3ccc(Cl)cc3F)c2C)C(=O)N1CC
Study system: Sphingosine 1-phosphate receptor 4 (Homo sapiens) (UniProt O95977)
Assigned category: true (1)
--
Compound: COCCN=C1S/C(=C\c2cc(C)n(Cc3ccccc3)c2C)C(=O)N1CCOC
Study system: Sphingosine 1-phosphate receptor 4 (Homo sapiens) (UniProt O95977)
Assigned category: false (0)
--
Compound: CN=C1NC(=O)/C(=C\c2cc(C)n(-c3cccc(F)c3)c2C)S1
Study system: Sphingosine 1-phosphate receptor 4 (Homo sapiens) (UniProt O95977)
Assigned category: false (0)
--
Compound: CCN=C1S/C(=C/c2cc(C)n(-c3ccccn3)c2C)C(=O)N1CC
Study system: Sphingosine 1-phosphate receptor 4 (Homo sapiens) (UniProt O95977)
Assigned category: true (1)
--
Compound: CCN=C1S/C(=C\c2cc(C)n(Cc3ccccc3F)c2C)C(=O)N1CC
Study system: Sphingosine 1-phosphate receptor 4 (Homo sapiens) (UniProt O95977)
Assigned category: false (0)
--
Compound: CCN=C1S/C(=C\c2cc(C)n(-c3ccccc3F)c2C)C(=O)N1CC
Study system: Sphingosine 1-phosphate receptor 4 (Homo sapiens) (UniProt O95977)
Assigned category: true (1)
--
Compound: CN=C1S/C(=C/c2cc(C)n(Cc3ccccc3)c2C)C(=O)N1C
Study system: Sphingosine 1-phosphate receptor 4 (Homo sapiens) (UniProt O95977)
Assigned category: true (1)
--
Compound: CCN=C1S/C(=C\c2ccn(-c3ccccc3F)c2)C(=O)N1CC
Study system: Sphingosine 1-phosphate receptor 4 (Homo sapiens) (UniProt O95977)
Assigned category: false (0)
--
Compound: Cc1cc(/C=C2\SC(=O)N(C)C2=O)c(C)n1-c1ccccc1F
Study system: Sphingosine 1-phosphate receptor 4 (Homo sapiens) (UniProt O95977)
Assigned category: true (1)
--
Compound: CN=C1NC(=O)/C(=C\c2cc(C)n(-c3ccccc3F)c2C)S1
Study system: Sphingosine 1-phosphate receptor 4 (Homo sapiens) (UniProt O95977)
Assigned category: true (1)
--
Compound: Cc1cc(/C=C2\SC(=NC(C)C)N(C(C)C)C2=O)c(C)n1-c1ccccc1F
Study system: Sphingosine 1-phosphate receptor 4 (Homo sapiens) (UniProt O95977)
Assigned category: false (0)
--
Compound: CN=C1S/C(=C\c2cc(C)n(-c3ccccc3Br)c2C)C(=O)N1C
Study system: Sphingosine 1-phosphate receptor 4 (Homo sapiens) (UniProt O95977)
Assigned category: false (0)
--
Compound: Cc1cc(/C=c2\sc3n(c2=O)CCCN=3)c(C)n1-c1ccccc1F
Study system: Sphingosine 1-phosphate receptor 4 (Homo sapiens) (UniProt O95977)
Assigned category: false (0)
--
Compound: C/N=C1/SC(=Cc2cc(C)n(Cc3ccc(F)cc3F)c2C)C(=O)N1C
Study system: Sphingosine 1-phosphate receptor 4 (Homo sapiens) (UniProt O95977)
Assigned category: true (1)
--
Compound: CCN=C1S/C(=C/c2ccn(-c3ccc(F)cc3F)c2)C(=O)N1CC
Study system: Sphingosine 1-phosphate receptor 4 (Homo sapiens) (UniProt O95977)
Assigned category: true (1)
--
Compound: CN=C1S/C(=C/c2cc(C)n(-c3ccccc3C)c2C)C(=O)N1C
Study system: Sphingosine 1-phosphate receptor 4 (Homo sapiens) (UniProt O95977)
Assigned category: false (0)
--
Compound: CCN=C1S/C(=C/c2cc(C)n(-c3ncccc3F)c2C)C(=O)N1CC
Study system: Sphingosine 1-phosphate receptor 4 (Homo sapiens) (UniProt O95977)
Assigned category: true (1)
--
Compound: CN=C1S/C(=C/c2cc(C)n(-c3ccc(Cl)cc3F)c2C)C(=O)N1C
Study system: Sphingosine 1-phosphate receptor 4 (Homo sapiens) (UniProt O95977)
Assigned category: true (1)
--
Compound: CN=C1S/C(=C\c2ccn(Cc3ccccc3)c2)C(=O)N1C
Study system: Sphingosine 1-phosphate receptor 4 (Homo sapiens) (UniProt O95977)
Assigned category: false (0)
--
Compound: CCN=C1S/C(=C/c2cc(C)n(C(C)c3ccccc3)c2C)C(=O)N1CC (stereo not drawn)
Study system: Sphingosine 1-phosphate receptor 4 (Homo sapiens) (UniProt O95977)
Assigned category: false (0)
--
Compound: CN=C1S/C(=C/c2cc(C)n(-c3cc(C)ccc3OC)c2C)C(=O)N1C
Study system: Sphingosine 1-phosphate receptor 4 (Homo sapiens) (UniProt O95977)
Assigned category: false (0)
--
Compound: CN=C1S/C(=C/c2cc(C)n(-c3ccc(F)cc3F)c2C)C(=O)N1C
Study system: Sphingosine 1-phosphate receptor 4 (Homo sapiens) (UniProt O95977)
Assigned category: true (1)
--
Compound: CN=C1S/C(=C\c2ccn(-c3ccccc3F)c2)C(=O)N1C
Study system: Sphingosine 1-phosphate receptor 4 (Homo sapiens) (UniProt O95977)
Assigned category: false (0)
